B1: Azoarcus group I ribozyme (parent)
chain: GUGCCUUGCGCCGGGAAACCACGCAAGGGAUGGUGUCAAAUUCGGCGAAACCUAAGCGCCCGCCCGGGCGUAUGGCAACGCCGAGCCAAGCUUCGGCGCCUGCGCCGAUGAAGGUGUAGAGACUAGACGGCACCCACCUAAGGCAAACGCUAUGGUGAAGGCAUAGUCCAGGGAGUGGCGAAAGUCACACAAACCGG

Variants of: B1
Protocol details: reverse-splicing fitness (ratio to wild type); higher = more active; in vitro selection; Mg2+ level not given
Parameter reverse-splicing fitness: see the listing below.

Dear colleague, I am looking for the recorded reverse-splicing fitness of the following variant: C82U A111U A145C C169U U176C 0.0103

For A111G A120C A145U C169A U176C , what is its reported reverse-splicing fitness? 0.0103
